Provenance of the data: paper doi:10.1101/2024.07.24.604858

Molecular target: T1, PfCSP central repeat peptide NANP_(20aa) (Plasmodium falciparum (repeat peptide, …))
T1 chain: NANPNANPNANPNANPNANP
Assay: SPR
Experimental Readout: binding result

>  <Binder>
mAb 0786 wt (antibody, V domains shown) VH: EVQLVESGGGLVQPGRSLRLSCTTSGFTFGDFAMSWVRQAPGKGLEWVGFIRSKANGGSTEYAASVKGRFTISRDDSKSIAYLQMDSLKTEDTAVYYCCRVWIQLWPLDYWGQGTLVTVSS VL: EIVLTQSPGTLSLSPGERATLSCRASQSIGSSYLAWYQLKPGQAPRLLIYGASSRATGIPDRFSGSGSGTDFTLIISRLEPEDFAVYFCQQYGRSPWTFGQGTKVEIK

>  <Experimental Readout>
binding result

>  <Endpoint Value>
binds

$$$$
>  <Binder>
mAb 0786 with Arg introduced at H.59 (antibody, V domains shown) VH: EVQLVESGGGLVQPGRSLRLSCTTSGFTFGDFAMSWVRQAPGKGLEWVGFIRSKANGGRTEYAASVKGRFTISRDDSKSIAYLQMDSLKTEDTAVYYCCRVWIQLWPLDYWGQGTLVTVSS VL: EIVLTQSPGTLSLSPGERATLSCRASQSIGSSYLAWYQLKPGQAPRLLIYGASSRATGIPDRFSGSGSGTDFTLIISRLEPEDFAVYFCQQYGRSPWTFGQGTKVEIK

>  <Experimental Readout>
binding result

>  <Endpoint Value>
binds

$$$$
>  <Binder>
mAb 0786 with H.A63P (antibody, V domains shown) VH: EVQLVESGGGLVQPGRSLRLSCTTSGFTFGDFAMSWVRQAPGKGLEWVGFIRSKANGGSTEYPASVKGRFTISRDDSKSIAYLQMDSLKTEDTAVYYCCRVWIQLWPLDYWGQGTLVTVSS VL: EIVLTQSPGTLSLSPGERATLSCRASQSIGSSYLAWYQLKPGQAPRLLIYGASSRATGIPDRFSGSGSGTDFTLIISRLEPEDFAVYFCQQYGRSPWTFGQGTKVEIK

>  <Experimental Readout>
binding result

>  <Endpoint Value>
binds

$$$$
